test system: 889142-216-R-J1-PDC complex spheroid viability; experiment: Anticancer human tumor 889142-216-R-J1-PDC patient-derived bladder carcinoma cell line growth inhibition [POLQ]; conditions: second compound 0.1 µM; first compound 0.0316 µM; stronger effect = lower value;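 note: spheroids exposed to compounds for seven days; 100% = DMSO vehicle control viability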
QUANTITY: viability, T/C (%)
Field: numeric (%). Do not append units.

COMPOUND: CCCS(=O)(=O)Nc1ccc(F)c(C(=O)c2c[nH]c3ncc(-c4ccc(Cl)cc4)cc23)c1F + COC1C(OC(N)=O)C(O)C(Oc2ccc3c(O)c(NC(=O)c4ccc(O)c(CC=C(C)C)c4)c(=O)oc3c2C)OC1(C)C
SYSTEM_NAME: 889142-216-R-J1-PDC complex spheroid viability;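 note: spheroids exposed to compounds for seven days; 100% = DMSO vehicle control viability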
viability, T/C [%]: 126
//
COMPOUND: CC1COCCN1c1cc(C2(S(C)(=N)=O)CC2)nc(-c2ccnc3[nH]ccc23)n1 (stereo not drawn) + COC1C(OC(N)=O)C(O)C(Oc2ccc3c(O)c(NC(=O)c4ccc(O)c(CC=C(C)C)c4)c(=O)oc3c2C)OC1(C)C
SYSTEM_NAME: 889142-216-R-J1-PDC complex spheroid viability;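 note: spheroids exposed to compounds for seven days; 100% = DMSO vehicle control viability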
viability, T/C [%]: 90.8

Shifting focus to the compound that follows.
// fetch viability, T/C for CC1COCCN1c1cc(C2(S(C)(=N)=O)CC2)nc(-c2ccnc3[nH]ccc23)n1 (stereo not drawn) + Nc1ccc(C#CCN(C(=O)Cc2ncc(C(F)(F)F)cc2C(F)(F)F)c2ccc(F)cc2)nn1 ; system: 889142-216-R-J1-PDC complex spheroid viability;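 note: spheroids exposed to compounds for seven days; 100% = DMSO vehicle control viability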
98
